test_target: T1, Nluc-IL23R fusion protein (human, UniProt Q5VWK5 22-629)
T1 construct: range 22-629; Stably expressed in HEK293 cells; also called hIL-23R; human IL-23R fused to a Nanoluc luciferase enzyme; not shown: Nanoluc luciferase (Promega N1371 plasmid) at the N-terminus
T1 sequence (looked up): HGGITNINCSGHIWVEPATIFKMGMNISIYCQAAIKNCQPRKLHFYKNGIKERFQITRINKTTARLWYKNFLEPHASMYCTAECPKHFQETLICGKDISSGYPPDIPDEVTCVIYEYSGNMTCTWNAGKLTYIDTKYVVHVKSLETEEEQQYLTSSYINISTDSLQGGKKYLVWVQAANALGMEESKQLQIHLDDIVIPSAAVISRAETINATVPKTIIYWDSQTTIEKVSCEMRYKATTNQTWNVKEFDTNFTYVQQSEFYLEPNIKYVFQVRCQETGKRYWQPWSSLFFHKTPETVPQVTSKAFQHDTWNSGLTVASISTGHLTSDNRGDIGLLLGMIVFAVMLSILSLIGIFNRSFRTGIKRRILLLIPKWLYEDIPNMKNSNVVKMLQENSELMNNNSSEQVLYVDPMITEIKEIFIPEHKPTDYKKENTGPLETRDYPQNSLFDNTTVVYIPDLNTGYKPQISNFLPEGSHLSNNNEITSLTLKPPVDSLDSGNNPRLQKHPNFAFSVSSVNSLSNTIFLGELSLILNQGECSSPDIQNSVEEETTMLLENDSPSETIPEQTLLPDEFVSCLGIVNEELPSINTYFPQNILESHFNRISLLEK
assay_explanation: BRET displacement of TAMRA-labelled peptide, Nluc-IL23R membranes
*1 amine or outer side, *2 acyl side, *3 side chain or, on linkers, in order; H or OH if unused. Bridges are numbered along the chain shown (N, C = ends). [ ]: non-standard residue; d: D form. 2Nal = N[C@@H](Cc1ccc2ccccc2c1)C(=O)O; CH2COCH2 = O=C(C[*:1])C[*:2]
readout_label: pKi
One number for each entry, as −log10 of the molar value.

Incoming: Can you share its pKi? I mean this binder: Ac-KSCWQCW[2Nal]LER-NH2 (lactam 1-10; linker 3-6 via CH2COCH2) [Compound 18]
Outgoing: 8.55
